Protocol text: Titration of Sensor Ia with various analytes (UV-vis and fluorescence)
Type: binding
Experimental conditions: fluorescence spectroscopy, λex = 484 nm, λem = 505 nm; error ± 20%, triplicate titration

Compound | Kn (association constant) [M⁻¹]
NCCCCC(N)C(=O)O (stereo not shown) | 4.0
NCC(O)c1ccc(O)c(O)c1 (stereo not shown) [norepinephrine] | 6500
NCCc1ccc(O)cc1 [Tyramine] | 250
NC(CCC(=O)O)C(=O)O (stereo not shown) | 6.8
NC1C(O)OC(CO)C(O)C1O (stereo not shown) | 5.0
NCCc1ccc(O)c(O)c1 [dopamine] | 3400
CNCC(O)c1ccc(O)c(O)c1 (stereo not shown) [epinephrine] | 5000
